tested on: human umbilical vein endothelial cells (HUVEC); assay: HUVEC proliferation, Calcein AM; format: cell-based; settings: Homo sapiens, HUVEC, 72 h; read-out: Inhibitory concentration for HUVEC cells - IC50
readout: pIC50
The scale used: pIC50 is minus the common logarithm of the concentration in molar units.

For the record NC1CCC(Nc2nc(NCc3ccc(-c4ccco4)nc3)c3ncn(C4CCCC4)c3n2)CC1 (centres unmarked) [BP14] , what value of pIC50 is listed for human umbilical vein endothelial cells (HUVEC)?
7.30

For the record NC1CCC(Nc2nc(NCc3ccc(-c4ccoc4)nc3)c3ncn(C4CCCC4)c3n2)CC1 (centres unmarked) [BP36] , what value of pIC50 is listed for human umbilical vein endothelial cells (HUVEC)?
6.72

For the record NC1CCC(Nc2nc(NCc3ccc(-c4ccco4)cc3)c3ncn(C4CCCC4)c3n2)CC1 (centres unmarked) [BP4] , what value of pIC50 is listed for human umbilical vein endothelial cells (HUVEC)?
6.35

For the record COc1ccccc1-c1ccc(CNc2nc(NC3CCC(N)CC3)nc3c2ncn3C2CCCC2)cn1 (centres unmarked) [BP18] , what value of pIC50 is listed for human umbilical vein endothelial cells (HUVEC)?
6.28

For the record NC1CCC(Nc2nc(NCc3ccc(-c4cccs4)nc3)c3ncn(C4CCCC4)c3n2)CC1 (centres unmarked) [BP30] , what value of pIC50 is listed for human umbilical vein endothelial cells (HUVEC)?
7.10

For the record NC1CCC(Nc2nc(NCc3ccc(-n4cccn4)cc3)c3ncn(C4CCCC4)c3n2)CC1 (centres unmarked) [BP24] , what value of pIC50 is listed for human umbilical vein endothelial cells (HUVEC)?
6.77

For the record NC1CCC(Nc2nc(NCc3ccc(-c4ccccc4O)nc3)c3ncn(C4CCCC4)c3n2)CC1 (centres unmarked) [BP20] , what value of pIC50 is listed for human umbilical vein endothelial cells (HUVEC)?
6.24

For the record NC1CCC(Nc2nc(NCc3ccc(-c4ccsc4)nc3)c3ncn(C4CCCC4)c3n2)CC1 (centres unmarked) [BP35] , what value of pIC50 is listed for human umbilical vein endothelial cells (HUVEC)?
6.74

For the record NC1CCC(Nc2nc(NCc3ccc(-c4cccc(F)c4)nc3)c3ncn(C4CCCC4)c3n2)CC1 (centres unmarked) [BP19] , what value of pIC50 is listed for human umbilical vein endothelial cells (HUVEC)?
6.43

====

molecular target: T1, CDK9/Cyclin T1 (Homo sapiens, UniProt P50750); experiment: Kinase inhibition assay, recombinant kinase, [γ-33P]ATP; assay type: biochemical; conditions: 1000 nM; read-out: Residual kinase activity, CDK9
T1 construct: purchased ProQinase GmbH (Freiburg, Germany)
T1 sequence (P50750 whole entry): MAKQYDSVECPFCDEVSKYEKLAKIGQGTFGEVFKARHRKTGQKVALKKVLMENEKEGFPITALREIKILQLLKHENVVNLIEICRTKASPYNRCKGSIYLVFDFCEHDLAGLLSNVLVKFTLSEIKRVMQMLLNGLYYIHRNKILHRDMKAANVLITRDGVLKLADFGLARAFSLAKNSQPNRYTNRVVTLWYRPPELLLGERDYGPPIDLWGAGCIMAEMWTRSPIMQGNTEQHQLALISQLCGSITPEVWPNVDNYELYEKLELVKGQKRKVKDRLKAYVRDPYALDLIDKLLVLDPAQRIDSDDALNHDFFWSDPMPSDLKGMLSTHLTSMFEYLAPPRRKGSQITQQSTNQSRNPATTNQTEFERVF
T1 sequence (O60563 whole entry partner): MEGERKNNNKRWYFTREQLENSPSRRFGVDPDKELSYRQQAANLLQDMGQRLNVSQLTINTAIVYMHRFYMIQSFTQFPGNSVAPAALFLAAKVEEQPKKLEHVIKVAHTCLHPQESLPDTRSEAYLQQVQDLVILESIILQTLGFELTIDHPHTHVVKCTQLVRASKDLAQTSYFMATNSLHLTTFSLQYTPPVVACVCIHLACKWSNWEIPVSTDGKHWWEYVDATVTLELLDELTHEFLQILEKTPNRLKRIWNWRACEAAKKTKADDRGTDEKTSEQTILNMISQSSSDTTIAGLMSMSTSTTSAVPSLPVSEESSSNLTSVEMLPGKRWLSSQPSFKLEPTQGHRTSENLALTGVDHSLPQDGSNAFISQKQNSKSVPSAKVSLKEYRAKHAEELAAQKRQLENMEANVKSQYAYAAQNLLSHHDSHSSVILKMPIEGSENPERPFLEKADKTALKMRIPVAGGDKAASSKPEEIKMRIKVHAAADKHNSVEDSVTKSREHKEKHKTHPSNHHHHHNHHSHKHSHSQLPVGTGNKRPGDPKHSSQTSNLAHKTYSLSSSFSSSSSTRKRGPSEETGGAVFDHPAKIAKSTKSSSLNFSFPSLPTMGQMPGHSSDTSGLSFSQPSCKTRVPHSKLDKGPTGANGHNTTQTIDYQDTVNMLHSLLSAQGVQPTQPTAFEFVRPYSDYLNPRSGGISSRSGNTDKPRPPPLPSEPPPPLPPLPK
readout: remaining activity at 1 µM
Could you kindly put the unit after your number?

Need remaining activity at 1 µM, item COc1ccccc1-c1ccc(CNc2nc(NC3CCC(N)CC3)nc3c2ncn3C2CCCC2)cn1 (stereo not shown)
1.03%

Need remaining activity at 1 µM, item NC1CCC(Nc2nc(NCc3ccc(-c4ccccc4O)nc3)c3ncn(C4CCCC4)c3n2)CC1 (stereo not shown)
0.59%

Need remaining activity at 1 µM, item Nc1ccccc1-c1ccc(CNc2nc(NC3CCC(N)CC3)nc3c2ncn3C2CCCC2)cn1 (stereo not shown)
82.8%

Need remaining activity at 1 µM, item OC1CCC(Nc2nc(NCc3ccc(-c4ccco4)nc3)c3ncn(C4CCCC4)c3n2)CC1 (stereo not shown)
7.74%

Need remaining activity at 1 µM, item NC1CCC(Nc2nc(NCc3ccc(-c4ccoc4)nc3)c3ncn(C4CCCC4)c3n2)CC1 (stereo not shown)
1.68%

Need remaining activity at 1 µM, item NC1CCC(Nc2nc(NCc3ccc(-c4cccs4)nc3)c3ncn(C4CCCC4)c3n2)CC1 (stereo not shown)
1.78%

Need remaining activity at 1 µM, item NC1CCC(Nc2nc(NCc3ccc(-c4ccco4)nc3)c3ncn(C4CCCC4)c3n2)CC1 (stereo not shown)
0.73%

Need remaining activity at 1 µM, item NC1CCC(Nc2nc(NCc3ccc(-c4cccc(F)c4)nc3)c3ncn(C4CCCC4)c3n2)CC1 (stereo not shown)
0.83%

Need remaining activity at 1 µM, item "CC(C)(O)CNc1nc(NCc2ccc(-c3ccco3)nc2)c2ncn(C3CCCC3)c2n1"
23.2%

Need remaining activity at 1 µM, item NC1CCC(Nc2nc(NCc3ccc(-c4ccsc4)nc3)c3ncn(C4CCCC4)c3n2)CC1 (stereo not shown)
2.39%

====

target: CDK7/cyclin H/MAT1 (Homo sapiens); construct: purchased ProQinase GmbH (Freiburg, Germany); assay: Kinase inhibition assay, recombinant kinase, [γ-33P]ATP; assay type: biochemical; conditions: 1000 nM; read-out: Residual kinase activity, CDK7
Sequence (P50613 whole entry): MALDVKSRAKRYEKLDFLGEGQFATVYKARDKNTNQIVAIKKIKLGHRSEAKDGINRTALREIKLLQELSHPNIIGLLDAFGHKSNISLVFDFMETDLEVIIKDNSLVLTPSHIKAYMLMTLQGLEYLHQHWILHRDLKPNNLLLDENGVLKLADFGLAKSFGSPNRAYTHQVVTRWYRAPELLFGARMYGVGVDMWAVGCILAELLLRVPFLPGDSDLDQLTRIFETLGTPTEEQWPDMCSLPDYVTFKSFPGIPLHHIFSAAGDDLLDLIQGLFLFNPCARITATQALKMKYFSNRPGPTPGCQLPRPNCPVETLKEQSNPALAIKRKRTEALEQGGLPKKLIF
Sequence (P51946 whole entry partner): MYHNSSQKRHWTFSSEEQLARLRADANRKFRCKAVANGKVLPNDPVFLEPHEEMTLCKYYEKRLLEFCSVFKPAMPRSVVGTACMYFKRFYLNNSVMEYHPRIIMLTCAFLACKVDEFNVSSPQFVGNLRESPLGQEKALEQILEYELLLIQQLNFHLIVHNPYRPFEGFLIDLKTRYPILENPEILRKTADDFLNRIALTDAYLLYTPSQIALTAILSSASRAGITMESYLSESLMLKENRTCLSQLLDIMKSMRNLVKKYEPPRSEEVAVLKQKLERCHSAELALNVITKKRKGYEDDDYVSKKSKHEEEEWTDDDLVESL
Sequence (P51948 whole entry partner): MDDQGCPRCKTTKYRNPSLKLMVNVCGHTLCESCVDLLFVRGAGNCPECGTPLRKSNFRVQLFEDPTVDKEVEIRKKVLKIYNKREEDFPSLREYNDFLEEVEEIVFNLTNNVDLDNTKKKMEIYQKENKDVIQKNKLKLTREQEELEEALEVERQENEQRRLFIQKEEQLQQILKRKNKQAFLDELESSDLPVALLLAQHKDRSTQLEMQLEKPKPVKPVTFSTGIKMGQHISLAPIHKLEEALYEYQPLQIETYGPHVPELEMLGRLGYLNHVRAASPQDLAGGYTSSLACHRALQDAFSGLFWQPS
Assignment: determine reported remaining activity at 1 µM for the given compounds.
Expressed in %, but write only the number.

Need remaining activity at 1 µM, item NC1CCC(Nc2nc(NCc3ccc(-c4ccoc4)nc3)c3ncn(C4CCCC4)c3n2)CC1 (stereo not shown) [BP36]
17.3

Need remaining activity at 1 µM, item OC1CCC(Nc2nc(NCc3ccc(-c4ccco4)nc3)c3ncn(C4CCCC4)c3n2)CC1 (stereo not shown) [BP21]
48.5

Need remaining activity at 1 µM, item NC1CCC(Nc2nc(NCc3ccc(-c4ccsc4)nc3)c3ncn(C4CCCC4)c3n2)CC1 (stereo not shown) [BP35]
33.5

Need remaining activity at 1 µM, item NC1CCC(Nc2nc(NCc3ccc(-c4ccccc4O)nc3)c3ncn(C4CCCC4)c3n2)CC1 (stereo not shown) [BP20]
17.3

====

target: CDK5/p35 (Homo sapiens); construct: purchased ProQinase GmbH (Freiburg, Germany); assay: Kinase inhibition assay, recombinant kinase, [γ-33P]ATP; format: biochemical; conditions: 100 nM; read-out: Residual kinase activity, CDK5
Sequence (Q00535 whole entry): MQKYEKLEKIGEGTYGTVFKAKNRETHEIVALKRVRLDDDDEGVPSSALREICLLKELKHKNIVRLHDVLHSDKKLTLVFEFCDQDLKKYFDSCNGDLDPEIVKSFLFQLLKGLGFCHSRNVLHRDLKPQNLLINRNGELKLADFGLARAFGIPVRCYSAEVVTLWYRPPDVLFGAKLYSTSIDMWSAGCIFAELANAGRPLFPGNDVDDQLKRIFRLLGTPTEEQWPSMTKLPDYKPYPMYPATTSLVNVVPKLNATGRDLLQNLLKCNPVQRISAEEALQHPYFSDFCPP
Sequence (Q15078 whole entry partner): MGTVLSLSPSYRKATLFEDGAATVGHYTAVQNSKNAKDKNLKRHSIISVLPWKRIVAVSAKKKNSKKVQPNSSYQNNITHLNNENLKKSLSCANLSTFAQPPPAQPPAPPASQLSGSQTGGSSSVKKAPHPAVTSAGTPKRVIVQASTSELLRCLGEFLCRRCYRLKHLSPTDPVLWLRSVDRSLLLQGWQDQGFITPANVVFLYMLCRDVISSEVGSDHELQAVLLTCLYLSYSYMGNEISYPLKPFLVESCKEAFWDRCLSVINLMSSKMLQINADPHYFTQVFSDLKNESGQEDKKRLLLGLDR
readout: remaining activity at 0.1 µM (%)
Expressed in %, but write only the number.

For the record NC1CCC(Nc2nc(NCc3ccc(-c4cccc(F)c4)nc3)c3ncn(C4CCCC4)c3n2)CC1 (stereo not drawn) , what value of remaining activity at 0.1 µM is listed for CDK5/p35 (Homo sapiens)?
37.7

For the record "CC(C)(O)CNc1nc(NCc2ccc(-c3ccco3)nc2)c2ncn(C3CCCC3)c2n1" , what value of remaining activity at 0.1 µM is listed for CDK5/p35 (Homo sapiens)?
76.7

For the record NC1CCC(Nc2nc(NCc3ccc(-c4ccccc4O)nc3)c3ncn(C4CCCC4)c3n2)CC1 (stereo not drawn) , what value of remaining activity at 0.1 µM is listed for CDK5/p35 (Homo sapiens)?
47.6

For the record Nc1ccccc1-c1ccc(CNc2nc(NC3CCC(N)CC3)nc3c2ncn3C2CCCC2)cn1 (stereo not drawn) , what value of remaining activity at 0.1 µM is listed for CDK5/p35 (Homo sapiens)?
87.8

For the record OC1CCC(Nc2nc(NCc3ccc(-c4ccco4)nc3)c3ncn(C4CCCC4)c3n2)CC1 (stereo not drawn) , what value of remaining activity at 0.1 µM is listed for CDK5/p35 (Homo sapiens)?
88.2

For the record NC1CCC(Nc2nc(NCc3ccc(-c4ccoc4)nc3)c3ncn(C4CCCC4)c3n2)CC1 (stereo not drawn) , what value of remaining activity at 0.1 µM is listed for CDK5/p35 (Homo sapiens)?
31.9

====

test system: caspase-3/7 activity in PLC/PRF/5 cell line; assay: One-step cellular caspase-3/7 activity assay; type: cell-based, human; conditions: compound concentration 160 nM; 24 hours incubation; relative to 0 nM = 1.00
readout: Relative caspase-3/7 activity in PLC/PRF/5 cell line
Just the number, please, no unit after it.

For the record "CC(C)(O)CNc1nc(NCc2ccc(-c3ccco3)cc2)c2ncn(C3CCCC3)c2n1" , what value of Relative caspase-3/7 activity in PLC/PRF/5 cell line is listed for caspase-3/7 activity in PLC/PRF/5 cell line?
1.17

For the record Nc1ccccc1-c1ccc(CNc2nc(NC3CCC(N)CC3)nc3c2ncn3C2CCCC2)cn1 (stereo not shown) , what value of Relative caspase-3/7 activity in PLC/PRF/5 cell line is listed for caspase-3/7 activity in PLC/PRF/5 cell line?
0.72

For the record COc1ccccc1-c1ccc(CNc2nc(NC3CCC(N)CC3)nc3c2ncn3C2CCCC2)cc1 (stereo not shown) , what value of Relative caspase-3/7 activity in PLC/PRF/5 cell line is listed for caspase-3/7 activity in PLC/PRF/5 cell line?
1.15

For the record NC1CCC(Nc2nc(NCc3ccc(-c4ccco4)cc3)c3ncn(C4CCCC4)c3n2)CC1 (stereo not shown) , what value of Relative caspase-3/7 activity in PLC/PRF/5 cell line is listed for caspase-3/7 activity in PLC/PRF/5 cell line?
0.67

For the record "CC(C)(O)CNc1nc(NCc2ccc(-c3ccco3)nc2)c2ncn(C3CCCC3)c2n1" , what value of Relative caspase-3/7 activity in PLC/PRF/5 cell line is listed for caspase-3/7 activity in PLC/PRF/5 cell line?
0.79

For the record NC1CCC(Nc2nc(NCc3ccc(-c4ccsc4)cc3)c3ncn(C4CCCC4)c3n2)CC1 (stereo not shown) , what value of Relative caspase-3/7 activity in PLC/PRF/5 cell line is listed for caspase-3/7 activity in PLC/PRF/5 cell line?
2.22
